// provenance: patent US10369146B2

assay system: human RORγt LBD (Homo sapiens, UniProt P51449)
assay protocol: RORγt reporter assay (GAL4-RORγt LBD luciferase, HEK293T cells)
condition description: HEK293T cells, 24 hours compound treatment, firefly/renilla luciferase ratio
measured metric: pIC50
Answer as the number alone; pIC50 is minus log10 of concentration in mol/L.

[
  {
    "compound": "Cn1cncc1C(O)(c1ccc(Cl)cc1)c1ccc2nc(C(F)(F)F)c(-c3ccccc3)c(C#N)c2c1 (single isomer, unassigned) [Example 31b]",
    "experimental result": 7.38
  }
]

## Input Print human RORγt LBD (Homo sapiens, UniProt P51449) pIC50 for CC(=O)N1CCC(C(O)(c2cccnc2)c2ccc3nc(C(F)(F)F)c(-c4ccccc4)c(C#N)c3c2)CC1 (single isomer, unassigned) [Example 30a] .
## Output 6.96

###

assay system: human RORγt ligand binding domain (RORγt LBD) (Homo sapiens, UniProt P51449)
Construct: His-tag (N); TurboTEV protease cleavage site (ENLYFQG) (N)
assay protocol: RORγt ThermoFluor® assay (thermal shift binding)
condition description: RORγt LBD, 1,8-ANS dye, pH 7.0; Kd estimated from thermal shift
Threshold 100 nM: Kd strictly smaller gives satisfied, otherwise not satisfied.

Check out these entries, answers already filled in.
[
  {
    "molecule": "Cn1cncc1C(O)(c1ccc(Cl)cc1)c1ccc2nc(C(F)(F)F)c(-c3ccccc3)c(C#N)c2c1 (single isomer, unassigned) [Example 31b]",
    "assay system": "human RORγt ligand binding domain (RORγt LBD) (Homo sapiens, UniProt P51449)",
    "class name": "satisfied"
  },
  {
    "molecule": "CC(=O)N1CCC(C(O)(c2cccnc2)c2ccc3nc(C(F)(F)F)c(-c4ccccc4)c(C#N)c3c2)CC1 (single isomer, unassigned) [Example 30a]",
    "assay system": "human RORγt ligand binding domain (RORγt LBD) (Homo sapiens, UniProt P51449)",
    "class name": "satisfied"
  }
]

## Input In plain terms, does Cn1cncc1C(O)(c1ccc(Cl)cc1)c1ccc2nc(C(F)(F)F)c(-c3ccccc3)c(C#N)c2c1 (single isomer, unassigned) [Example 31c] come in under 100 nM for Kd?
## Output not satisfied

###

// reported RORγt reporter Assay, % inhibition @ 6 μM for each item listed
assay system: human RORγt LBD (Homo sapiens, UniProt P51449)
Construct: expressed in transfected cells; host or cells: HEK293T
assay protocol: RORγt reporter assay (GAL4-RORγt LBD luciferase, HEK293T cells)
Type: cell-based
condition description: 6 μM compound, HEK293T cells; 6 µM
Numbers only; they are read as %.

[
  {
    "molecule": "CC(=O)N1CCC(C(O)(c2cccnc2)c2ccc3nc(C(F)(F)F)c(-c4ccccc4)c(C#N)c3c2)CC1 (single isomer, unassigned) [Example 30b]",
    "experimental result": 95
  }
]

## Input Complete the entry with RORγt reporter Assay, % inhibition @ 6 μM for Cn1cncc1C(O)(c1ccc(Cl)cc1)c1ccc2nc(C(F)(F)F)c(-c3ccccc3)c(C#N)c2c1 (single isomer, unassigned) [Example 31b]
## Output 103

## Input Tell us which RORγt reporter Assay, % inhibition @ 6 μM value is on record for CC(=O)N1CCC(C(O)(c2cccnc2)c2ccc3nc(C(F)(F)F)c(-c4ccccc4)c(C#N)c3c2)CC1 (single isomer, unassigned) [Example 30c]
## Output 93

## Input Please list RORγt reporter Assay, % inhibition @ 6 μM recorded for the molecule Cn1cncc1C(O)(c1ccc(Cl)cc1)c1ccc2nc(C(F)(F)F)c(-c3ccccc3)c(C#N)c2c1 (single isomer, unassigned) [Example 31c]
## Output 85

###

assay system: human RORγt LBD (Homo sapiens, UniProt P51449)
Sequence (P51449 258-518): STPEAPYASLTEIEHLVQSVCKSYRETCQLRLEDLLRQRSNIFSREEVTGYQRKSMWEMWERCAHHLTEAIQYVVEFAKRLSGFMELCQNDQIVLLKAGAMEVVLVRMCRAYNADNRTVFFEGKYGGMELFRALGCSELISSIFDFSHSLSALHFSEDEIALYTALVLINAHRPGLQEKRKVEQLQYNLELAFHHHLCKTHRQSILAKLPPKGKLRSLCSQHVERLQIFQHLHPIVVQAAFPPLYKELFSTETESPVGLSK
assay protocol: RORγt reporter assay (GAL4-RORγt LBD luciferase, HEK293T cells)
condition description: HEK293T cells, 24 hours compound treatment, firefly/renilla luciferase ratio
measured metric: pIC50
# log scale: pIC50 equals minus log10 of the concentration in mol/L

Answered examples (3):
[
  {
    "compound": "Cn1cncc1C(O)(c1ccc(Cl)cc1)c1ccc2nc(C(F)(F)F)c(-c3ccccc3)c(C#N)c2c1 (single isomer, unassigned) [Example 31a]",
    "assay system": "human RORγt LBD (Homo sapiens, UniProt P51449)",
    "pIC50": 6.82
  },
  {
    "compound": "COc1c(-c2ccccc2)c(Cl)nc2ccc(C(O)(c3cnnn3C)c3cnc(C)n3C)cc12 (single isomer, unassigned) [Example 40b]",
    "assay system": "human RORγt LBD (Homo sapiens, UniProt P51449)",
    "pIC50": 6.17
  },
  {
    "compound": "CC(=O)N1CCC(C(O)(c2cccnc2)c2ccc3nc(C(F)(F)F)c(-c4ccccc4)c(C#N)c3c2)CC1 (single isomer, unassigned) [Example 30c]",
    "assay system": "human RORγt LBD (Homo sapiens, UniProt P51449)",
    "pIC50": 6.85
  }
]

// moving on: another record for pIC50
## Input Return value of pIC50 for input COc1nc2ccc(C(O)(c3cncn3C)C3CCN(C(C)=O)CC3)cc2c(C#N)c1-c1cccc(C(F)(F)F)c1 (single isomer, unassigned) , no commentary.
## Output 6.77

###

In this section, each of the compounds is paired with its reported Kd.
assay system: human RORγt ligand binding domain (RORγt LBD) (Homo sapiens, UniProt P51449)
Construct: His-tag (N); TurboTEV protease cleavage site (ENLYFQG) (N)
assay protocol: RORγt ThermoFluor® assay (thermal shift binding)
condition description: RORγt LBD, 1,8-ANS dye, pH 7.0; Kd estimated from thermal shift
Supply the numeric figure in nM, leaving out any unit text.

[
  {
    "compound": "COc1c(-c2ccccc2)c(Cl)nc2ccc(C(O)(c3cnnn3C)c3cnc(C)n3C)cc12 (single isomer, unassigned) [Example 40b]",
    "Kd [nM]": 150
  },
  {
    "compound": "CC(=O)N1CCC(C(O)(c2cccnc2)c2ccc3nc(C(F)(F)F)c(-c4ccccc4)c(C#N)c3c2)CC1 (single isomer, unassigned) [Example 30b]",
    "Kd [nM]": 300
  }
]

## Input Quick one: give measured Kd for CC(=O)N1CCC(C(O)(c2cccnc2)c2ccc3nc(C(F)(F)F)c(-c4ccccc4)c(C#N)c3c2)CC1 (single isomer, unassigned) [Example 30c]
## Output 9

## Input Specify reported Kd for the compound shown: COc1c(-c2ccccc2)c(Cl)nc2ccc(C(O)(c3cnnn3C)c3cnc(C)n3C)cc12 (single isomer, unassigned) [Example 40c]
## Output 120
